Entry source: the nanobody polyreactivity screen of Harvey et al. (2022)

# test_summary: yeast display, Sf9 membrane polyspecificity reagent, FACS + sequencing; frameworks hold sequencing errors
measured_quantity: polyreactivity (PSR sort gate)

Study these solved cases before continuing.
INSERT INTO measurements (sequence_record, reported_measurement) VALUES
  ('QVQLVESGGGLVQAGGSLRLSCAASGSTFRFYAMGWYRQAPGKERELVAAINGSGGSTYYADSVKGRFTISRDIAKNSVYLQMNSLKPEDTAVYYCAVLYRYGYDYWGQGTQVTVSS', 'low polyreactivity'),
  ('QVQLVESGGGLLQAGGRLRLSCAASGFTSTRYAMGWYRQAPGKERELVAAISYGGGDTYYADSVKGRFTISRDNAKNTVYIQMNSMKPEDTAVYYCSSRLRSRNTRLYHWGQGTQGTVSS', 'high polyreactivity'),
  ('QVQLVESGGGLVQAGGSLRLSCAASGLTFYAYAMGWYRQAPGKERELVAGISRSGGRTYYADSVKGRFTISRDNAKNTVYLQMNSLKPEDTAVYYCAAGIPVTSRFYGMDWGQGTQVTVSS', 'high polyreactivity'),
  ('QVQLVESGGGLVHAGGSLSLSCAASGSIFPGYAMGWYRQAPGKERELVAGITWSDARTYYADSVKGRFTISRDNAKNTVYLQMNSLKPEDTAVYYCAADYYYYERDYWGKGTQVTVSS', 'low polyreactivity');

Dear colleague, I am looking for the recorded polyreactivity (PSR sort gate) of the following sequence: "QVQLVESGGGLVQAGGSLRLSCAASGFIYSYAMGWYRQAPGKERELVAAISRSGGSTYYADSVKGRFTISRDNAKNTVYLQKNSLKPEDTAVYYCAALRRYPRDNIMYYYPYDYWGQGTQVTVSS"
high polyreactivity

// repeat for "QVQLVESGGGLVQAGGSLRLSCAASGRTFPIYAMGWYRQAPGKERELVASITRSGGSTYYADSVKGRFTISRDNAKNTVYLQMNSLKPEDTAVYYCAAAANSYSVYTGKFYYWGQGTQVTVSS" and report
high polyreactivity

Please answer likewise for "QVQLVESGGGLVQAGGSLRLSCAASGSTVDFNAMGWYRQAPGKERELVAGISRDGGSTYYADSVKGRFTISRDYAKNTVYLEMNSLKPEDTAVYYCAVEAWSVPPYDYWGQGTQVTVSS"
low polyreactivity
